Recorded values, source ChEMBL document CHEMBL4699594.

Reported selectivity ratio values are given for each entry in this list.
test: Selectivity index, ratio of IC50 for cytotoxicity against human HEK293 cells to IC50 for antiplasmodial activity against chloroquine-sensitive Plasmodium falciparum 3D7 ring stage; format: toxicity, cell-based; settings: read-out: Ratio IC50
API doc: respond with a numeric literal and nothing else, no unit.

The cases that follow already have their selectivity ratio on record.
>  <SMILES_STRING>
COc1cc(CCN(C)CCCN(C)C(=O)[C@H](CCN(C)CCc2cc(OC)c(Br)cc2Br)N(C)C)c(Br)cc1Br

>  <REPORTED>
66

$$$$
>  <SMILES_STRING>
CN[C@@H](CCN(C)CCc1cc(OC)c(Br)cc1Br)C(=O)N(C)CCCN(C)CCc1cc(OC)c(Br)cc1Br

>  <REPORTED>
20

$$$$
>  <SMILES_STRING>
C[C@H]1[C@@H](O)O[C@@H]2O[C@@]3(C)CC[C@H]4[C@H](C)CC[C@@H]1[C@@]24OO3

>  <REPORTED>
62

$$$$

// below: selectivity ratio requested for another compound
What value of selectivity ratio has been reported for the following compound? CNCCc1cc(OC)c(Br)cc1Br.O=C(O)C(F)(F)F
4

---

assay: Selectivity index, ratio of IC50 for cytotoxicity against human HEK293 cells to IC50 for antiplasmodial activity against chloroquine-resistant Plasmodium falciparum Dd2 ring stage; assay type: toxicity, cell-based; settings: read-out: Ratio IC50
Decision: selectivity ratio beneath 60 gives rule met; selectivity ratio meeting or exceeding 60 gives rule not met.

>  <SMILES_STRING>
CN[C@@H](CCN(C)CCc1cc(OC)c(Br)cc1Br)C(=O)NCCCN(C)CCc1cc(OC)c(Br)cc1Br

>  <ASSIGNED_CATEGORY>
rule met

$$$$

is_below(selectivity ratio, 60) for COc1cc(CCN(C)CCCN(C)C(=O)[C@H](CCN(C)CCc2cc(OC)c(Br)cc2Br)N(C)C)c(Br)cc1Br ?
rule met

is_below(selectivity ratio, 60) for COc1ccc(C[C@H](N)C(=O)N[C@H]2[C@@H](O)[C@H](n3cnc4c(N(C)C)ncnc43)O[C@@H]2CO)cc1 ?
rule not met

is_below(selectivity ratio, 60) for CN[C@@H](CCN(C)CCc1cc(OC)c(Br)cc1Br)C(=O)N(C)CCCN(C)CCc1cc(OC)c(Br)cc1Br ?
rule met

is_below(selectivity ratio, 60) for C[C@H]1[C@@H](O)O[C@@H]2O[C@@]3(C)CC[C@H]4[C@H](C)CC[C@@H]1[C@@]24OO3 ?
rule met

---

test: Selectivity index, ratio of IC50 for cytotoxicity against human HEK293 cells to IC50 for antiplasmodial activity against chloroquine-sensitive Plasmodium falciparum 3D7 ring stage; format: toxicity, cell-based; settings: read-out: Ratio IC50
METRIC: selectivity ratio

>  <SMILES_STRING>
COc1cc(CCN(C)CCCN(C)C)c(Br)cc1Br

>  <selectivity ratio>
10

$$$$
>  <SMILES_STRING>
COc1ccc(C[C@H](N)C(=O)N[C@H]2[C@@H](O)[C@H](n3cnc4c(N(C)C)ncnc43)O[C@@H]2CO)cc1

>  <selectivity ratio>
353

$$$$

// below: selectivity ratio requested for another molecule
What value of selectivity ratio has been reported for the following molecule? CN[C@@H](CCN(C)CCc1cc(OC)c(Br)cc1Br)C(=O)NCCCN(C)CCc1cc(OC)c(Br)cc1Br
25
